- ASSAYED_TARGET: T1, human GIP receptor (human) (UniProt P48546)
- T1 sequence (looked up): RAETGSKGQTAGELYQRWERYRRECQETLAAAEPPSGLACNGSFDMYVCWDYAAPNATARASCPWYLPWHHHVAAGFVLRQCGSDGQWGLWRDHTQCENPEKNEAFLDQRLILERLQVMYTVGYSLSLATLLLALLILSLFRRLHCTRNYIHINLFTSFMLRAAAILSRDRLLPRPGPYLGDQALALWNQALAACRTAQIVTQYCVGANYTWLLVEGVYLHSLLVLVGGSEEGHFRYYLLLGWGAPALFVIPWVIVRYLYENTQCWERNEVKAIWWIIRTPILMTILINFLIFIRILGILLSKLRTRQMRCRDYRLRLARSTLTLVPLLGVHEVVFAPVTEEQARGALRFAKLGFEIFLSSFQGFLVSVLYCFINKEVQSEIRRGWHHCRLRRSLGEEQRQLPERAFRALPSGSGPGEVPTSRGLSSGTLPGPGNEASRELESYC
- PROTOCOL_TEXT: cell-based or functional assay
Starred links: 1 amine or outer side, 2 acyl side, 3 side chain; linkers in the order of their positions; H or OH if unused. Non-standard residues stand in square brackets, D forms with d. Groups on a side chain read outwards from the residue. No end group written: not given here. *: point of attachment. C20 diacid = O=C(O)CCCCCCCCCCCCCCCCCCC(=O)*; γGlu = O=C(O)[C@H](CCC(=O)[*:2])N[*:1]; αMeL = CC(C)C[C@](C)(N)C(=O)O; AEEA = NCCOCCOCC(=O)O; Aib = CC(C)(N)C(=O)O
Binary label based on cAMP Rel EC50 (in the presence of 1% HSA) with cut-off 2 nM: below gives Satisfied, not below gives Not satisfied.

{"columns": ["BINDER", "LABEL"],
 "data": [
  ["YXQGTFTSDFSIXLDKKAQXAFIEYLLEGGPSSGEPPPSEG (non-natural residues; acylated Lys; C-terminal amide; synthetic construct; SITE 2: note = 2-Aminoisobutyric Acid; SITE 13: note = alpha-methyl-leucine; SITE 17: note = Lysine is chemically modified through conjugation of the epsilon-amino group of the Lysine side chain with (2-[2-(2-Amino-ethoxy)-ethoxy]-acetyl)-(gamma-Glu)-CO-(CH2) 18-CO2H; SITE 20: n) [Example 288]", "Not satisfied"],
  ["YXQGTXTSDXXIXLDXKAQXXFIEXLTEGGPSSGEPPPEGTEE (acylated Lys (γGlu)2-C18 diacid; non-natural residues; C-terminal amide; synthetic construct; SITE 2: note = 2-Aminoisobutyric Acid; SITE 6: note = alpha-methyl-2-fluoro-L-phenylalanine; SITE 10: note = 3-(4-Pyridyl)-L-alanine; SITE 11: note = alpha-methyl-L-serine; SITE 13: note = alpha-methyl-leucine; SITE 16: note = L-ornithine; SITE 17: note = Lysine is chemically mo) [Example 597]", "Not satisfied"],
  ["YXQGTXTSDXXIXLDXKAQXEFIEXLIEGGPPSXXPPPXGE (non-natural residues; lipidated Lys; C-terminal amide; synthetic construct; SITE 2: note = 2-Aminoisobutyric Acid; SITE 6: note = alpha-methyl-2-fluoro-L-phenylalanine; SITE 10: note = 3-(4-Pyridyl)-L-alanine; SITE 11: note = alpha-methyl-L-serine; SITE 13: note = alpha-methyl-leucine; SITE 16: note = L-ornithine; SITE 17: note = Lysine is chemically mo) [Example 1195]", "Satisfied"],
  ["YXQGTFTSDFSKXLDKKAQXAFIEYLLAGGPSSGAPPPGGE (synthetic construct; SITE 2: note = 2-Aminoisobutyric Acid; SITE 13: note = alpha-methyl-leucine; SITE 17: note = Lysine is chemically modified through conjugation of the epsilon-amino group of the Lysine side chain with (2-[2-(2-Amino-ethoxy)-ethoxy]-acetyl)-(gamma-Glu)-CO-(CH2) 18-CO2H; SITE 20: n) [Example 15]", "Not satisfied"],
  ["YXQGTFTSDXSKXLDKKAQXAFIEYLIAXGESSGAPPPSGS (non-natural residues; C18 diacid-γGlu-AEEA on Lys; C-terminal amide; synthetic construct; SITE 2: note = 2-Aminoisobutyric Acid; SITE 10: note = 3-(4-Pyridyl)-L-alanine; SITE 13: note = alpha-methyl-leucine; SITE 17: note = Lysine is chemically modified through conjugation of the epsilon-amino group of the Lysine side chain with (2-[2-(2-Amino-ethoxy)-ethoxy]-acetyl)) [Example 285]", "Not satisfied"],
  ["YXQGTXTSDXSIXLDKKAQXAFIEYLTEGGPSSGEPPPSGSEE (non-natural residues; acylated Lys; C-terminal amide; synthetic construct; SITE 2: note = 2-Aminoisobutyric Acid; SITE 6: note = alpha-methyl-2-fluoro-L-phenylalanine; SITE 10: note = 3-(4-Pyridyl)-L-alanine; SITE 13: note = alpha-methyl-leucine; SITE 17: note = Lysine is chemically modified through conjugation of the epsilon-amino group of the Lysine) [Example 633]", "Satisfied"],
  ["Y[Aib]QGTFTSDYSI[αMeL]LDKK([AEEA-γGlu-C20 diacid])AQRAFIEYLLEGGPSSGEPPPSEG-NH2 [Example 289]", "Not satisfied"],
  ["YXQGTFTSDFSKXLDKKAQXAFIEYLLAGGPSSGEPPPSGS (synthetic construct; SITE 2: note = 2-Aminoisobutyric Acid; SITE 13: note = alpha-methyl-leucine; SITE 17: note = Lysine is chemically modified through conjugation of the epsilon-amino group of the Lysine side chain with (2-[2-(2-Amino-ethoxy)-ethoxy]-acetyl)-(gamma-Glu)-CO-(CH2) 18-CO2H; SITE 20: n) [Example 8]", "Not satisfied"],
  ["YXQGTFTSDFSXXLDKKAQXAFIEWLLEAGSSSGAPPPSGT (C-terminal amide; lysine acylated with AEEA-γ-Glu-C18 diacid; synthetic construct; SITE 2: note = 2-Aminoisobutyric Acid; SITE 12: note = L-ornithine; SITE 13: note = alpha-methyl-leucine; SITE 17: note = Lysine is chemically modified through conjugation of the epsilon-amino group of the Lysine side chain with (2-[2-(2-Amino-ethoxy)-ethoxy]-acetyl)-(gamma-Glu)) [Example 263]", "Not satisfied"],
  ["YXQGTFTSDFSXXLDKKAQXAFIEYLLEAGPSSGHPPPSGX (non-natural residues; acylated Lys C18 diacid; C-term amide; synthetic construct; SITE 2: note = 2-Aminoisobutyric Acid; SITE 12: note = L-ornithine; SITE 13: note = alpha-methyl-leucine; SITE 17: note = Lysine is chemically modified through conjugation of the epsilon-amino group of the Lysine side chain with (2-[2-(2-Amino-ethoxy)-ethoxy]-acetyl)2-(gamma-Glu)) [Example 256]", "Not satisfied"],
  ["YXQGTFTSDXXQXLDXKAQXQFIEXLIEXGPSSGEPPPSGGGE (non-natural residues, lysine acylation, C-terminal amide; synthetic construct; SITE 2: note = 2-Aminoisobutyric Acid; SITE 10: note = 3-(4-Pyridyl)-L-alanine; SITE 11: note = alpha-methyl-L-serine; SITE 13: note = alpha-methyl-leucine; SITE 16: note = L-ornithine; SITE 17: note = Lysine is chemically modified through conjugation of the epsilon-amino group) [Example 1184]", "Not satisfied"],
  ["YXQGTXTSDXXIXLDXKAQXEFIEXLIEGGPSSGAPPPSGGGE (acylated Lys, C-terminal amide, non-natural residues; synthetic construct; SITE 2: note = 2-Aminoisobutyric Acid; SITE 6: note = alpha-methyl-2-fluoro-L-phenylalanine; SITE 10: note = 3-(4-Pyridyl)-L-alanine; SITE 11: note = alpha-methyl-L-serine; SITE 13: note = alpha-methyl-leucine; SITE 16: note = L-ornithine; SITE 17: note = Lysine is chemically mo) [Example 1180]", "Satisfied"]
]}
